biological target: hNav1.7 (Homo sapiens (Human), UniProt Q15858); assay: Tritiated compound binding to membranes from cells heterologously expressing hNav1.7 and the β1 subunit (LBA); settings: competitive binding vs [3H]compound, membranes with hNav1.7 and β1 subunit; read-out: Nav1.7 LBA EVO IC50
experimental endpoint: IC50 (nM)
Numbers only, in nM.

Answered cases to consult:
COc1cc(-c2cccc(F)c2)c(F)cc1N1C(=O)CO[C@@H]2CN(S(=O)(=O)Nc3ccon3)CC[C@H]21	2000
COc1cc(-c2cccc(C(F)(F)F)c2)c(F)cc1N1C(=O)OC[C@@H]2CN(S(=O)(=O)Nc3ccon3)CC[C@H]21	112
COc1cc(-c2cccc(C(F)(F)F)c2)cc(F)c1N1C(=O)CO[C@H]2CN(S(=O)(=O)Nc3ccon3)CC[C@@H]21	2000
COc1cc(-c2cccc(C(F)(F)F)c2)cc(F)c1N1C(=O)CO[C@@H]2CN(S(=O)(=O)Nc3ccon3)CC[C@H]21	831

Now turn to the next compound.
Summary for this compound, "COc1cc(-c2cccc(OC(F)(F)F)c2)c(F)cc1N1CCO[C@@H]2CN(S(=O)(=O)Nc3ccon3)CC[C@H]21" : IC50 is 128

Taken from patent US10947251B2.
